FYI, the data here is from ChEMBL document CHEMBL2040848.

test system: Staphylococcus aureus; assay: Antibacterial activity against quinolone-resistant Staphylococcus aureus CCARM 3519 after 24 hrs by two-fold serial dilution method; format: functional; conditions: CCARM 3519, 24 h
Assign labels as follows, please: satisfied for MIC below 8 mg/L; not satisfied for MIC equal to or exceeding 8 mg/L.

chemical_structure=O=C(COc1ccc(/C=C2\SC(=S)N([C@@H](Cc3c[nH]c4ccccc34)C(=O)O)C2=O)cc1)c1ccc(F)cc1 category=satisfied
chemical_structure=COc1ccccc1C(=O)COc1ccc(/C=C2\SC(=S)N([C@@H](Cc3ccccc3)C(=O)O)C2=O)cc1 category=satisfied
chemical_structure=O=C(COc1ccc(/C=C2\SC(=S)N([C@@H](Cc3ccc(O)cc3)C(=O)O)C2=O)cc1)c1ccccc1Br category="not satisfied"
chemical_structure=O=C(COc1ccc(/C=C2\SC(=S)N([C@@H](Cc3c[nH]c4ccccc34)C(=O)O)C2=O)cc1)c1cccc(Br)c1 category=satisfied
chemical_structure=O=C(COc1ccc(/C=C2\SC(=S)N([C@@H](Cc3ccc(O)cc3)C(=O)O)C2=O)cc1)c1ccccc1F category="not satisfied"
chemical_structure=Cc1onc(-c2ccccc2)c1C(=O)N[C@@H]1C(=O)N2[C@@H]1SC(C)(C)[C@@H]2C(=O)O category=satisfied
chemical_structure=COc1cccc(C(=O)COc2ccc(/C=C3\SC(=S)N([C@@H](Cc4ccc(O)cc4)C(=O)O)C3=O)cc2)c1 category="not satisfied"
chemical_structure=O=C(O)CN1C(=O)C(=Cc2ccc(/C=C/C(=O)c3ccc(Cl)cc3Cl)cc2)SC1=S category=satisfied
chemical_structure=O=C(COc1ccc(/C=C2\SC(=S)N([C@@H](Cc3ccccc3)C(=O)O)C2=O)cc1)c1ccccc1Cl category=satisfied
chemical_structure=O=C(COc1ccc(/C=C2\SC(=S)N([C@@H](Cc3ccccc3)C(=O)O)C2=O)cc1)c1ccc(F)cc1 category=satisfied
chemical_structure=O=C(COc1ccc(/C=C2\SC(=S)N([C@@H](Cc3ccccc3)C(=O)O)C2=O)cc1)c1ccccc1 category=satisfied
chemical_structure=O=C(COc1ccc(/C=C2\SC(=S)N([C@@H](Cc3ccc(O)cc3)C(=O)O)C2=O)cc1)c1ccc(Cl)cc1 category="not satisfied"
chemical_structure=O=C(COc1ccc(/C=C2\SC(=S)N([C@@H](Cc3ccccc3)C(=O)O)C2=O)cc1)c1cccc(Cl)c1 category=satisfied
chemical_structure=O=C(COc1ccc(/C=C2\SC(=S)N([C@@H](Cc3ccccc3)C(=O)O)C2=O)cc1)c1cccc(Br)c1 category=satisfied
chemical_structure=O=C(COc1ccc(/C=C2\SC(=S)N([C@@H](Cc3ccccc3)C(=O)O)C2=O)cc1)c1ccccc1F category=satisfied
chemical_structure=O=C(COc1ccc(/C=C2\SC(=S)N([C@@H](Cc3ccccc3)C(=O)O)C2=O)cc1)c1ccc(Cl)cc1 category=satisfied
